experiment: Distribution coefficient, log D of the compound; format: physicochemical; conditions: octanol/water
readout kind: logD

[
  {
    "molecular string": "COc1ccc(Oc2ccc(SC)cc2)c(CN(C)C)c1",
    "logD": 2.7
  }
]

[I] CSc1ccc(Oc2ccc(C)cc2CN(C)C)cc1
[II] CSc1ccc(Oc2ccc(S(N)(=O)=O)cc2CN(C)C)cc1
[in] Between item I and item II , which reported logD is smaller? Could you answer with the label of the item you picked?
[out] II
(II: 1.5, I: 2.9)

---

species on record: Homo sapiens; assay: Selectivity for human serotonin transporter over human dopamine transporter
readout kind: Ratio IC50

The examples below pair each entry with its known result.
[
  {
    "molecular string": "CSc1ccc(Oc2ccncc2CN(C)C)cc1Cl",
    "reported measurement": 3900
  },
  {
    "molecular string": "CSc1ccc(Oc2ccc(C)cc2CN(C)C)cc1",
    "reported measurement": 820
  },
  {
    "molecular string": "CNCc1cc(NS(C)(=O)=O)ccc1Oc1ccc(SC)cc1",
    "reported measurement": 770
  },
  {
    "molecular string": "CSc1ccc(Oc2ccc(F)cc2CN(C)C)cc1",
    "reported measurement": 690
  }
]

[P] CN(C)Cc1cc(NS(C)(=O)=O)ccc1Oc1ccc2c(c1)OCCS2
[Q] CNCc1cc(NS(C)(=O)=O)ccc1Oc1ccc(SC)c(F)c1
[R] CNS(=O)(=O)c1ccc(Oc2ccc(SC)cc2)c(CN(C)C)c1
[S] CN(C)Cc1cc(NS(C)(=O)=O)ccc1Oc1ccc(C(F)(F)F)cc1
[in] Rank descending by Ratio IC50. Your reply should list the labels following the order given in the request.
[out] S, P, Q, R
(S: 2400, P: 1000, Q: 290, R: 60)
